# TARGET_OR_TEST_SYSTEM: Protein translocase subunit SecA (Escherichia coli (strain K12)) (UniProt P10408)
# Sequence (P10408 whole entry): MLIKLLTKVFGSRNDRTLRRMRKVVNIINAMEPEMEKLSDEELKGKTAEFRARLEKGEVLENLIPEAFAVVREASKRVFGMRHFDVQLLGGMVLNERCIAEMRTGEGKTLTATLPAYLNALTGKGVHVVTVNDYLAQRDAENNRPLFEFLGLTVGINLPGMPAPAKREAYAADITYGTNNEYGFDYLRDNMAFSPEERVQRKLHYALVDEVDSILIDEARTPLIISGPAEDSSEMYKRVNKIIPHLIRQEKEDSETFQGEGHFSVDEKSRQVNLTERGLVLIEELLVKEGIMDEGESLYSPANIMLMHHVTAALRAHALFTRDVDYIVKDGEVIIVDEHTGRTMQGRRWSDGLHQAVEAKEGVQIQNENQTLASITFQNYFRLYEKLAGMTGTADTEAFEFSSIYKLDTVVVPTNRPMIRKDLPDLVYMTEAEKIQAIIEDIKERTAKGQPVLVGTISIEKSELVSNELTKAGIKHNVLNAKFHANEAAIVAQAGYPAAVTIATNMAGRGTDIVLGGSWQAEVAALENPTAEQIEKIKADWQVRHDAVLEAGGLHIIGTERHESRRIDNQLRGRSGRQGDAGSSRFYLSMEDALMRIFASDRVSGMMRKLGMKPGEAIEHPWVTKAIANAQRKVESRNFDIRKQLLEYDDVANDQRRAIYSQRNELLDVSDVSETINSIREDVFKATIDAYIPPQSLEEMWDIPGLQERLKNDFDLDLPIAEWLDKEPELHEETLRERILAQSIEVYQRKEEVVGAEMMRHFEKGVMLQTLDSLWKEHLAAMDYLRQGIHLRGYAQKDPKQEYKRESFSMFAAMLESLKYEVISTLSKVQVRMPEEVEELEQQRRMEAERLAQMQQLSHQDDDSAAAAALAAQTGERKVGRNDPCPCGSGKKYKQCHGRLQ
# PROTOCOL_DETAILS: Assay to Identify E. coli SecA ATPase Inhibitors
# Assay type: functional
# Design: scale not given: direction of the effect not stated beside the values
# CONDITION_NOTES: 30 µM
Potency and affinity values are given separately.
Record form. Attribute: Percent Effect. Fill in for each entry.
Give just the number in %; leave the unit off.

Ask | Specify Percent Effect for COCC1COCCC12CCN(C(=O)CCOc1ccccc1)CC2 (stereo not drawn) and stop.
Reply | -3.35

Ask | Specify Percent Effect for O=C(Cc1cn2ccsc2n1)N1CCCC(n2cncn2)C1 (stereo not drawn) and stop.
Reply | -3.72

Ask | Specify Percent Effect for Cc1nc(C(=O)N2CCc3c(nc(-c4ccncc4)[nH]c3=O)C2)cs1 and stop.
Reply | -4.53

Ask | Specify Percent Effect for O=C(c1ccco1)N1CCC2(CC1)C(=O)NCCN2CC1CC1 and stop.
Reply | -7.74

Ask | Specify Percent Effect for O=C(NCCn1ccnc1)N1CCN(Cc2cccs2)CC1 and stop.
Reply | 2.19

Ask | Specify Percent Effect for CS(=O)(=O)NCc1cc2n(n1)CCCN(Cc1cccc(C#N)c1)C2 and stop.
Reply | -4.38

Ask | Specify Percent Effect for COc1c(CNC2CCCOc3ccccc32)c(C)nn1C (stereo not drawn) and stop.
Reply | -6.71

Ask | Specify Percent Effect for C=Cn1ncc(CN2C[C@@H]3CCCN3C[C@H]2CCSC)c1C and stop.
Reply | -0.255

Ask | Specify Percent Effect for CC(C)(C)c1nc(CN(Cc2cccs2)C2CCS(=O)(=O)C2)no1 (stereo not drawn) and stop.
Reply | -1.36

Ask | Specify Percent Effect for CCc1nc(CCNC(=O)C2CCOC2)sc1C (stereo not drawn) and stop.
Reply | -4.95

Ask | Specify Percent Effect for CNC(=O)[C@H]1C[C@@H]2CN(S(=O)(=O)c3ccccc3)C[C@@H]2N1C(C)=O and stop.
Reply | -5.14

Ask | Specify Percent Effect for CC(=O)N1CC[C@@H]2CN(C(=O)c3ccco3)CCO[C@@H]2C1 and stop.
Reply | 0.266

Ask | Specify Percent Effect for Cc1nn(C)c(C)c1C1CCCN1Cc1nc(C2CC2)no1 (stereo not drawn) and stop.
Reply | -2.91

Ask | Specify Percent Effect for Cc1ncsc1C(=O)NCCSCc1cccs1 and stop.
Reply | -1.5

Ask | Specify Percent Effect for O=C(O)c1csc(S(=O)(=O)N2CCCc3ccc(F)cc32)c1 and stop.
Reply | -6.97

Ask | Specify Percent Effect for CCCN1CCN(C(=O)c2cnccn2)[C@H]2CS(=O)(=O)C[C@H]21 and stop.
Reply | -2.77

Ask | Specify Percent Effect for Cc1nc(C)n(CC2CCCN2Cc2cn3c(C)cccc3n2)n1 (stereo not drawn) and stop.
Reply | -1.02

Ask | Specify Percent Effect for Cc1cc(CN2CCCC2c2noc(C)n2)no1 (stereo not drawn) and stop.
Reply | 3.19

Ask | Specify Percent Effect for Cc1cc(C)cc(-c2cccc(CC3(C(=O)O)CCOCC3)c2)c1 and stop.
Reply | -0.147

Ask | Specify Percent Effect for O=C(c1ccco1)N1C[C@H]2CCCN(CC3CCOCC3)[C@H]2C1 and stop.
Reply | -3.2

Ask | Specify Percent Effect for O=C(C1CC=CC1)N1C[C@@H]2[C@@H](C1)OCC(=O)N2Cc1cccnc1 and stop.
Reply | -2.28

Ask | Specify Percent Effect for CC(=O)N1CCN(C(=O)c2cc(-n3cnnn3)ccc2Cl)CC1 and stop.
Reply | -7.31

Ask | Specify Percent Effect for CCC[C@@H]1CN(S(=O)(=O)c2ccc(C)c(F)c2)C[C@H]1N(C)C and stop.
Reply | -4.83

Ask | Specify Percent Effect for Cn1c(CNc2c(F)cccc2-n2cccn2)cc(=O)n(C)c1=O and stop.
Reply | -1.07

Ask | Specify Percent Effect for Cc1cnn(CC2CN(CCS(=O)(=O)c3ccccc3)CCO2)c1 (stereo not drawn) and stop.
Reply | -8.49

Ask | Specify Percent Effect for COC1CC2(CCN(Cc3ccc4c(c3)OCO4)CC2)C1 and stop.
Reply | -2.7

Ask | Specify Percent Effect for CN(C)C(=O)COCc1cncc2c1CCN(Cc1nccn1C)C2 and stop.
Reply | -2.93

Ask | Specify Percent Effect for CN(C)C(=O)CN1C(=O)CCC12CCN(Cc1ccc(F)cc1)CC2 and stop.
Reply | -1.87

Ask | Specify Percent Effect for O=C(NCCCn1cncn1)N1CCCC(N2CCCC2)C1 (stereo not drawn) and stop.
Reply | -3.14

Ask | Specify Percent Effect for Cn1ccnc1CN1CCN(Cc2cc(C#N)ccc2F)CC1 and stop.
Reply | -2.4

Ask | Specify Percent Effect for CCc1ncncc1C(=O)N1CCCN(Cc2ccc(C)cc2)CC1 and stop.
Reply | -6.16

Ask | Specify Percent Effect for Cc1noc(C(C)C)c1C(=O)NCC(c1ccsc1)N(C)C (stereo not drawn) and stop.
Reply | -1.69

Ask | Specify Percent Effect for Cc1ccc(CC(=O)N2Cc3nccn3CC(Cn3cccn3)C2)cc1 (stereo not drawn) and stop.
Reply | 0.712

Ask | Specify Percent Effect for OCC1CCCCN1c1ccc(-c2nc(-c3ccccc3F)no2)cn1 (stereo not drawn) and stop.
Reply | -2.19

Ask | Specify Percent Effect for Cc1nc(-c2ccsc2)ccc1C(=O)O and stop.
Reply | -3.65

Ask | Specify Percent Effect for CCS(=O)(=O)N1CCC2(CC1)CC(Oc1ccccn1)CO2 (stereo not drawn) and stop.
Reply | -0.483

Ask | Specify Percent Effect for CC(C)C(=O)N1CCCC(c2cc(C(F)F)n3ncnc3n2)C1 (stereo not drawn) and stop.
Reply | -6.98

Ask | Specify Percent Effect for O=C(CN1CCCCC1C1OCCO1)Nc1ccc(F)c(F)c1 (stereo not drawn) and stop.
Reply | -3.75

Ask | Specify Percent Effect for CC(C)n1ccnc1C1CCN(C(=O)c2cc[nH]n2)CC1 and stop.
Reply | -1.49

Ask | Specify Percent Effect for O=C(C1CCOCC1)N1CC[C@H]2C[C@@H](c3ccncn3)O[C@@H]2C1 and stop.
Reply | -7.3

Ask | Specify Percent Effect for c1ccc(-c2ccc(C3CNCCO3)nc2)cc1 (stereo not drawn) and stop.
Reply | -1.91

Ask | Specify Percent Effect for COCCN1CCCC1c1nccnc1Nc1nc(C)cs1 (stereo not drawn) and stop.
Reply | -2.72

Ask | Specify Percent Effect for CCCNC(=O)NCc1cccnc1OC and stop.
Reply | -1.2

Ask | Specify Percent Effect for c1ccc2c(N3CCCCC3Cn3cncn3)ncnc2c1 (stereo not drawn) and stop.
Reply | -4.99

Ask | Specify Percent Effect for CCn1cc(N)c(C(=O)NCc2cnn(C)c2)n1 and stop.
Reply | -3.38

Ask | Specify Percent Effect for O=C(NCCCN1CCCCC1)c1ccc(-n2ccc3ccccc32)s1 and stop.
Reply | -0.638

Ask | Specify Percent Effect for Cc1cnn(CC2CN(CC(=O)N3CCc4ccccc43)CCO2)c1 (stereo not drawn) and stop.
Reply | -4.43

Ask | Specify Percent Effect for CCc1nc(CN2CCCC(NCc3ccc(C(N)=O)cc3)C2)no1 (stereo not drawn) and stop.
Reply | -4.14
